- study-target: HLA-B*35:01
- assay-protocol: IEDB peptide-MHC binding, purified MHC/competitive/radioactivity; filed as Kd, often an IC50 or EC50 that approximates it; bounds were set here for any values at or beyond the usual limits of such assays
- test-settings: source organism: Dengue virus 4 Philippines/H241/1956
property: Kd (nM)
Lab book: enter the figure in nM, no units written.

// field: Kd; key: "VPLLAMGCY" ; value = 112

Looking up "MPTVIEELEK" , I see its Kd listed as 2620

* * *

- study-target: HLA-B*44:02
- assay-protocol: IEDB peptide-MHC binding, purified MHC/direct/fluorescence; filed as Kd, often an IC50 or EC50 that approximates it; bounds were set here for any values at or beyond the usual limits of such assays
- test-settings: source organism: Vibrio cholerae
pKd: −log10 of the molar value.
property: pKd

Kindly note the recorded pKd for "GLRWHVRAF" , which is ≤ 4.70

* * *

- study-target: HLA-A*02:01
- assay-protocol: IEDB peptide-MHC binding, purified MHC/competitive/fluorescence; filed as Kd, often an IC50 or EC50 that approximates it; bounds were set here for any values at or beyond the usual limits of such assays
- test-settings: source organism: Mycobacterium tuberculosis variant bovis BCG str. Pasteur 1173P2
property: Kd (µM)
Reply numerically in µM, unit not repeated.

The sequence "IQAVFGFSL" showed Kd equal to 1.35

* * *

- study-target: HLA-A*30:01
- assay-protocol: IEDB peptide-MHC binding, purified MHC/competitive/radioactivity; filed as Kd, often an IC50 or EC50 that approximates it; bounds were set here for any values at or beyond the usual limits of such assays
- test-settings: source organism: Dengue virus 4 Dominica/814669/1981
property: pKd
Bear in mind: pKd is minus log10 of a mol/L concentration; give just that figure.

sequence "KGKRALTPPV" , pKd observed: 7.91

* * *

- study-target: HLA-B*57:01
- assay-protocol: IEDB peptide-MHC binding, purified MHC/competitive/fluorescence; filed as Kd, often an IC50 or EC50 that approximates it; bounds were set here for any values at or beyond the usual limits of such assays
- test-settings: source organism: Araucaria virus
pKd: −log10 of the molar value.
property: pKd

Here "ELRQLAQSL" was tested on HLA-B*57:01, and its pKd came to ≤ 4.70

* * *

- study-target: HLA-A*11:01
- assay-protocol: IEDB peptide-MHC binding, purified MHC/competitive/radioactivity; filed as Kd, often an IC50 or EC50 that approximates it; bounds were set here for any values at or beyond the usual limits of such assays
- test-settings: source organism: SARS coronavirus Tor2
Provide the recorded log10(Kd) for the entries that follow.
Give log10 of Kd, with Kd taken in nM.

Short answer for "TVCTVCGMWK" : log10(Kd) was 0.74

Reported log10(Kd) for "MSAPPAEYK" was -0.02

"TVVQRCASNK" yielded log10(Kd) of 2.01

Short answer for "PVVAAIITR" : log10(Kd) was 3.25

log10(Kd) in this record for "TTFDAEYCR" : 1.88

The measured log10(Kd) associated with "SVVNARLRAK" reads 1.95

Sample "RQLFKPLTKK" ; log10(Kd) observed: 0.91

Given item "STCMMCYKR" , the value recorded as its log10(Kd) is 0.96

The recorded log10(Kd) for entry "DVFHLYLQY" equals 4.03

// recorded log10(Kd) for "AISDYDYYR" : 1.81

log10(Kd) reading for "QSQMLLIVLK" : 1.03

Per the record, "SSIVRQLFK" has log10(Kd) of 1.86

# log10(Kd) (sequence: "AVMYMGTLSY" ) is 0.89

The measured log10(Kd) associated with "STRHPSKLR" reads 3.51

Given item "TQYNRYLALY" , the value recorded as its log10(Kd) is 3.20

According to the records, this sequence "LQFTSLEIPR" displays log10(Kd) of 2.93

Documented log10(Kd) of "AAYFVGYLK" : 0.50

Documented log10(Kd) of "GLALYYPSAR" : 3.05

response.value for "SVSPKLFIR" (field: log10(Kd)) = 2.88

Reported log10(Kd) for "LSAGVEFLK" was -0.77

Please fill in: log10(Kd) reported for "VLAAECTIFK" = 2.02
